Each entry below carries its reported IPOHE, percentage damage caused to the plant (five-point scale).
System: Ipomoea hederacea (IPOHE)
measurement protocol: Post-emergence Test (glasshouse, percentage damage to the plant)
Assay type: in vivo
measurement parameters: post-emergence; 1000 g/ha unless otherwise stated; evaluated after 13 days
measured endpoint: IPOHE, percentage damage caused to the plant (five-point scale)

compound=CCn1c(C)c(-c2ccc(F)cc2F)c(=O)c(C(=O)OC)c1-c1cnc(Cl)c(Cl)c1 reading="1 (1=0-20%)"
compound=CCn1c(CBr)c(-c2ccc(Cl)cc2)c(=O)c(C(=O)OC)c1-c1ccc(Cl)c(Cl)c1 reading=0
compound=CCn1c(C)c(-c2cccc(Oc3ccccc3)c2)c(=O)c(C(=O)O)c1-c1ccc(Cl)c(Cl)c1 reading="1 (1=0-20%)"
compound=CCn1c(C)c(-c2cc(F)ccc2C)c(=O)c(C(=O)O)c1-c1ccc(Cl)c(Cl)c1 reading="3 (3=41-60%)"

###

Each entry below carries its reported percentage damage to the plant, ZEAMX.
Tested on: Zea mays (ZEAMX)
measurement protocol: Pre-emergence Test (glasshouse, percentage damage to the plant)
Type: in vivo
measurement parameters: 1000 g/ha unless otherwise stated, five-point scale
measured endpoint: percentage damage to the plant, ZEAMX

compound=CCn1c(C)c(-c2ccc(Cl)cc2F)c(=O)c(C(=O)O)c1-c1ccc(Cl)c(Cl)c1 assay_system="Zea mays (ZEAMX)" measured_endpoint="percentage damage to the plant, ZEAMX" reading="4 (4=61-80%)"
compound=CCn1c(C)c(-c2ccc(Cl)cc2)c(=O)c(C(=O)O)c1-c1ccc(F)c(F)c1 assay_system="Zea mays (ZEAMX)" measured_endpoint="percentage damage to the plant, ZEAMX" reading="2 (2=21-40%)"
compound=CCn1c(C)c(-c2ccc(Cl)c(C(=O)NC3CC3)c2)c(=O)c(C(=O)O)c1-c1ccc(Cl)c(Cl)c1 assay_system="Zea mays (ZEAMX)" measured_endpoint="percentage damage to the plant, ZEAMX" reading="1 (1=0-20%)"
compound=CCn1c(C)c(-c2ccc(OC(F)(F)F)cc2)c(=O)c(C(=O)O)c1-c1ccc(F)cc1F assay_system="Zea mays (ZEAMX)" measured_endpoint="percentage damage to the plant, ZEAMX" reading="1 (1=0-20%)"

###

Test system: Echinochloa crus-galli (ECHCG)
measurement protocol: Post-emergence Test (glasshouse, percentage damage to the plant)
Format: in vivo
measurement parameters: post-emergence spray, 1000 g/ha unless otherwise stated, evaluated after 13 days
measured endpoint: Post-emergence Test ECHCG, percentage damage to the plant (five-point scale)

compound=CCn1c(C)c(-c2cccnc2F)c(=O)c(C(=O)O)c1-c1ccc(Cl)c(Cl)c1 reading="4 (4=61-80%)"
compound=CCNC(=O)c1cc(-c2c(C)n(CC)c(-c3ccc(Cl)c(Cl)c3)c(C(=O)O)c2=O)ccc1Cl reading="1 (1=0-20%)"
compound=CCn1c(C)c(-c2cncn2C)c(=O)c(C(=O)O)c1-c1ccc(Cl)c(Cl)c1 reading="1 (1=0-20%)"
compound=CCn1c(C)c(-c2ccc(Cl)cc2)c(=O)c(C(=O)O)c1-c1ccc(Br)c(F)c1 reading="2 (2=21-40%)"

###

Each entry below carries its reported Post-emergence Test SETFA, percentage damage to the plant (five-point scale).
Test system: Setaria faberi (SETFA)
measurement protocol: Post-emergence Test (glasshouse, percentage damage to the plant)
Type: in vivo
measurement parameters: post-emergence spray, 1000 g/ha unless otherwise stated, evaluated after 13 days
measured endpoint: Post-emergence Test SETFA, percentage damage to the plant (five-point scale)

compound=CCn1c(-c2ccc(Cl)c(Cl)c2)c(C(=O)OC)c(=O)c(-c2ccc(Cl)cc2)c1C(F)(F)F reading=0
compound=CCn1c(C)c(-c2ccc(C(C)=O)cc2)c(=O)c(C(=O)O)c1-c1ccc(Cl)c(Cl)c1 reading="2 (2=21-40%)"
compound=CCOc1cccc(-c2c(C)n(CC)c(-c3ccc(Cl)c(Cl)c3)c(C(=O)O)c2=O)c1 reading="1 (1=0-20%)"
compound=CCn1c(C)c(-c2cc(Cl)ccc2Cl)c(=O)c(C(=O)O)c1-c1ccc(Cl)cc1 reading="3 (3=41-60%)"
compound=CCNC(=O)c1cc(-c2c(C)n(CC)c(-c3ccc(Cl)c(Cl)c3)c(C(=O)O)c2=O)ccc1Cl reading="1 (1=0-20%)"
compound=CCn1c(C)c(-c2cccc(C#N)c2)c(=O)c(C(=O)O)c1-c1ccnc(Cl)c1 reading=0
compound=CCn1c(C)c(-c2ccc(COC)cc2)c(=O)c(C(=O)O)c1-c1ccc(Cl)c(Cl)c1 reading="4 (4=61-80%)"
compound="CCn1c(C)c(-c2ccnnc2)c(=O)c(C(=O)O)c1-c1ccc(Cl)c(Cl)c1 [Compound 35, 2,2,2-trifluoroacetate]" reading="2 (2=21-40%)"
compound=CCn1c(C)c(-c2ccc(F)c(Cl)c2)c(=O)c(C(=O)O)c1-c1ccc(Cl)c(Cl)c1 reading="4 (4=61-80%)"
compound=CCn1c(C)c(-c2cc(C(F)(F)F)ccc2F)c(=O)c(C(=O)O)c1-c1ccc(Cl)cc1 reading="4 (4=61-80%)"
compound=CCn1c(C)c(-c2ccc(C(=O)N(C)C)cc2)c(=O)c(C(=O)O)c1-c1ccc(Cl)c(Cl)c1 reading="3 (3=41-60%)"
compound=CCn1c(C)c(-c2cc(C(F)(F)F)ccc2Cl)c(=O)c(C(=O)O)c1-c1ccc(Cl)cc1 reading="2 (2=21-40%)"
compound=CCn1c(C)c(-c2cccc(OCC(F)(F)F)c2)c(=O)c(C(=O)O)c1-c1ccc(Cl)c(Cl)c1 reading="1 (1=0-20%)"
compound=CCn1c(C)c(-c2cccc(C#N)c2)c(=O)c(C(=O)O)c1-c1ccc(Cl)c(Cl)n1 reading="2 (2=21-40%)"
compound=CCn1c(C)c(-c2ccc(F)cc2)c(=O)c(C(=O)O)c1-c1ccc(Cl)c(Cl)c1 reading="4 (4=61-80%)"
compound=CCn1c(C)c(-c2ccc(C(F)F)cc2)c(=O)c(C(=O)O)c1-c1ccc(Cl)c(Cl)c1 reading="3 (3=41-60%)"
compound=CCn1c(C)c(-c2ccc(Cl)cc2)c(=O)c(C(=O)O)c1-c1ccnc(Cl)c1 reading="4 (4=61-80%)"
compound=CCn1c(C)c(-c2ccc(Cl)cc2)c(=O)c(C(=O)O)c1-c1ccc(Cl)c(Cl)c1 reading="5 (5=81-100%)"
compound=CCn1c(C)c(-c2ncco2)c(=O)c(C(=O)OC)c1-c1ccc(Cl)c(Cl)c1 reading="1 (1=0-20%)"
compound=CCn1c(C)c(-c2ccc(F)c(OCC(F)(F)F)c2)c(=O)c(C(=O)O)c1-c1ccc(Cl)c(Cl)c1 reading="4 (4=61-80%)"

###

Test system: Setaria faberi (SETFA)
measurement protocol: Post-emergence Test (glasshouse, percentage damage to the plant)
Format: in vivo
measurement parameters: post-emergence spray, 1000 g/ha unless otherwise stated, evaluated after 13 days
measured endpoint: Post-emergence Test SETFA, percentage damage to the plant (five-point scale)

compound=CCn1c(C)c(-c2ccc(Cl)c(F)c2)c(=O)c(C(=O)O)c1-c1ccc(Cl)c(Cl)c1 reading="5 (5=81-100%)"
compound=CCn1c(COC)c(-c2ccc(Cl)cc2)c(=O)c(C(=O)O)c1-c1ccc(Cl)c(Cl)c1 reading="4 (4=61-80%)"
compound=CCn1c(C)c(-c2ccc(Cl)cc2)c(=O)c(C(=O)O)c1-c1ccc(Br)c(F)c1 reading="3 (3=41-60%)"
compound=CCn1c(C)c(-c2ccc(F)nc2)c(=O)c(C(=O)O)c1-c1ccc(Cl)c(Cl)c1 reading="5 (5=81-100%)"
compound=CCn1c(C)c(-c2ccc(C(F)(F)F)cc2)c(=O)c(C(=O)O)c1-c1ccnc(Cl)c1 reading="4 (4=61-80%)"
compound=CCn1c(C)c(-c2cc(Cl)cc(Cl)c2)c(=O)c(C(=O)O)c1-c1ccc(Cl)c(Cl)c1 reading="1 (1=0-20%)"
compound=CCOC(=O)c1c(-c2ccc(Br)c(F)c2)n(CC)c(C)c(-c2ccc(Cl)cc2)c1=O reading="3 (3=41-60%)"
compound=CCn1c(C)c(-c2ccc(Cl)cc2)c(=O)c(C(=O)O)c1-c1ccc(Cl)cn1 reading="3 (3=41-60%)"
compound=CCOc1ccc(-c2c(C)n(CC)c(-c3ccc(Cl)c(Cl)c3)c(C(=O)O)c2=O)cc1 reading="3 (3=41-60%)"
compound=CCn1c(C)c(-c2ccccn2)c(=O)c(C(=O)O)c1-c1ccc(Cl)c(Cl)c1.Cl reading="3 (3=41-60%)"
compound=CCn1c(C)c(-c2ccc(OC)c(C)c2)c(=O)c(C(=O)O)c1-c1ccc(Cl)c(Cl)c1 reading="3 (3=41-60%)"
compound=CCn1c(C)c(-c2cccnc2F)c(=O)c(C(=O)O)c1-c1ccc(Cl)c(Cl)c1 reading="4 (4=61-80%)"
compound=CCn1c(C)c(-c2ccc(OC(F)(F)F)cc2)c(=O)c(C(=O)O)c1-c1ccc(Cl)c(Cl)c1 reading="3 (3=41-60%)"
compound=CCn1c(C)c(-c2cc(F)c(F)c(F)c2)c(=O)c(C(=O)O)c1-c1ccc(Cl)c(Cl)c1 reading="4 (4=61-80%)"
compound=CCn1c(C)c(-c2cnc3c(c2)OC(F)(F)O3)c(=O)c(C(=O)O)c1-c1ccc(Cl)c(Cl)c1 reading="4 (4=61-80%)"
compound=CCOc1cc(-c2c(C)n(CC)c(-c3ccc(Cl)cc3)c(C(=O)O)c2=O)ccc1C(F)(F)F reading="1 (1=0-20%)"
compound=CCn1c(C)c(-c2ccc(Cl)cc2F)c(=O)c(C(=O)O)c1-c1ccc(Cl)c(Cl)c1 reading="5 (5=81-100%)"
